Reported values of melting point for individual entries
Assay Endpoint: melting point

[[record]]
structure_string = "Cc1nc(-c2ccccc2F)n(O)c1-c1cccnc1"
assay_endpoint = "melting point"
result = "65 to 75 °C"

[[record]]
structure_string = "N#Cc1ccc(NC(=O)c2cc3ccccc3cc2O)c(OC(F)(F)F)c1"
assay_endpoint = "melting point"
result = "248 °C"

[[record]]
structure_string = "Cc1nnc2ccc(-c3ccc(Cl)c(C(F)(F)F)c3)nn12"
assay_endpoint = "melting point"
result = "267 to 269 °C"

[[record]]
structure_string = "C=C(CCCCCCCCCCCCCCCC)CC(CO)CO"
assay_endpoint = "melting point"
result = "64 to 65 °C"

[[record]]
structure_string = "N=C(NO)c1cccc2nc(N[C@@H]3CCc4ccccc43)ccc12"
assay_endpoint = "melting point"
result = "200 °C"

[[record]]
structure_string = "O=C1CN(c2ccc(F)cc2)CCN1"
assay_endpoint = "melting point"
result = "118 to 120 °C"

